Sourced from patent US8637513B2

Molecular target: T-type channel alpha1I (CaV 3.3) (Homo sapiens, UniProt Q9P0X4)
Construct: expressed in transfected cells; host or cells: HEK 293 cells, tetracycline-inducible expression
Sequence (Q9P0X4 whole entry): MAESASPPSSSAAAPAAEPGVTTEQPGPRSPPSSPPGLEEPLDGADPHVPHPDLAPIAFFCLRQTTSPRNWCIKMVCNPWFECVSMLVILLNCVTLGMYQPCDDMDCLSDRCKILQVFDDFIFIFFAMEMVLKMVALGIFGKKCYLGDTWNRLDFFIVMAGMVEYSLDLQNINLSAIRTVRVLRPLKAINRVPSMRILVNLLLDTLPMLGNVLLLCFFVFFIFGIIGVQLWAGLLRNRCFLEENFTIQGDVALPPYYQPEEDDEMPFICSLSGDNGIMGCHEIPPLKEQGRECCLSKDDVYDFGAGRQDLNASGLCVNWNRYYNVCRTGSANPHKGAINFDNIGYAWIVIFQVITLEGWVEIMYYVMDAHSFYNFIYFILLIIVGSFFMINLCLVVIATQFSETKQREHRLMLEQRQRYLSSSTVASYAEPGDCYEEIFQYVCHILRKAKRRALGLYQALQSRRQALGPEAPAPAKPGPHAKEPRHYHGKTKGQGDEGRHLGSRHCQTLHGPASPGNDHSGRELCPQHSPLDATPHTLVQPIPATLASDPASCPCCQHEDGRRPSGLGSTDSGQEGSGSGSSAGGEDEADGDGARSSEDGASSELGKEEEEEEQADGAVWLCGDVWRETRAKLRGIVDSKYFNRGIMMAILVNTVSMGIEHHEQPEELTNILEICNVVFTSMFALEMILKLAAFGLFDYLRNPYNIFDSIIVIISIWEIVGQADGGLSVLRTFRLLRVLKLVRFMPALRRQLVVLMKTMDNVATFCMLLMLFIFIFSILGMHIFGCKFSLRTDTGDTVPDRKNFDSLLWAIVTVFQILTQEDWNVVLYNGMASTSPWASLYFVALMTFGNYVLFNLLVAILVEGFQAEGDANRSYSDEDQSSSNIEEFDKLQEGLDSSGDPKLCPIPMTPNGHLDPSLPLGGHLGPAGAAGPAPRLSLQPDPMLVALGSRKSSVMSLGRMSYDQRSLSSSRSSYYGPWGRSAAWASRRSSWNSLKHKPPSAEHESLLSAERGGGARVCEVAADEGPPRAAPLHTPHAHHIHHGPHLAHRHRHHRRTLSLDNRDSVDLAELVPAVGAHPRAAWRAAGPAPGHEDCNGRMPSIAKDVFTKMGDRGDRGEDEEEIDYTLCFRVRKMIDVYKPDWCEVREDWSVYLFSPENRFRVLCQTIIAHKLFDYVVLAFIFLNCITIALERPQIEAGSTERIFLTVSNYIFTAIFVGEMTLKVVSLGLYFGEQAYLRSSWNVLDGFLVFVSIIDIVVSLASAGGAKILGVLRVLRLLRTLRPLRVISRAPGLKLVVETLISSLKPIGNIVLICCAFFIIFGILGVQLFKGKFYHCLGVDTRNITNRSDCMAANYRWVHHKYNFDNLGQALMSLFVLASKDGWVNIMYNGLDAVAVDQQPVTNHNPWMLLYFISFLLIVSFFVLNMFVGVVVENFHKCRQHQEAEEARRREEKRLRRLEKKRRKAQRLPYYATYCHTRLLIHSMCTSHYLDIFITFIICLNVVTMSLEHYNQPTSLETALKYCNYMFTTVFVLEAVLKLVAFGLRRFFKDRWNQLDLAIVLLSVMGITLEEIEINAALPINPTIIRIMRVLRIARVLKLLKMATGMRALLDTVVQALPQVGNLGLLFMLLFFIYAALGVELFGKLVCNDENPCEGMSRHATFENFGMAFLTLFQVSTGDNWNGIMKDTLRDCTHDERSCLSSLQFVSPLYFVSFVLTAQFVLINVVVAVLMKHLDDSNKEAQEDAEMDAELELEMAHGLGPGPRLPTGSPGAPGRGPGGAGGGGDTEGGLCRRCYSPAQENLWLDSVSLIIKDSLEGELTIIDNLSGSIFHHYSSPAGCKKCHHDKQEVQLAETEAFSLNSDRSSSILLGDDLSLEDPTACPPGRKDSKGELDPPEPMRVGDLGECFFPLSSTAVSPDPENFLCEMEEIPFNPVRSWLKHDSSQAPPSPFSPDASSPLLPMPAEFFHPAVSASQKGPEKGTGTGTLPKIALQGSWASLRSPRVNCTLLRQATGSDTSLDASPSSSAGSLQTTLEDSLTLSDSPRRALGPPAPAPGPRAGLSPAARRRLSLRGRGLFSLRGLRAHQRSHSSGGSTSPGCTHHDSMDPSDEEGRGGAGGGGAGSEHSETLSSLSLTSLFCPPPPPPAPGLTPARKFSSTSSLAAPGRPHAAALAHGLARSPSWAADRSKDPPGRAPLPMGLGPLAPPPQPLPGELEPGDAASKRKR
Experiment: FLIPR Ca2+ Flux Assay
Assay type: cell-based
Details: alpha1I subtype; read-out: FLIPR alpha1I IP
observation type: IC50 (nM)

A. C[C@@H](NC(=O)Cc1ccc(-c2nccnc2C2CC2)cc1)c1ccc(OCC(F)(F)F)cn1 [Example 6]
B. C[C@@H](NC(=O)Cc1ccc(-c2cnn3ncccc23)cc1)c1ccc(OCC(F)(F)F)cn1 [Example 4]
q: # returns the entry with the larger IC50; inputs A and B Choose, then provide that item's label.
a: A
(A: 47 nM, B: 5 nM)

I. C[C@@H](NC(=O)Cc1ccc(-c2cnccn2)cc1)c1ccc(OCC(F)(F)F)cn1 [Example 5]
II. C[C@@H](NC(=O)Cc1ccc(OC2CCOC2)cc1)c1ccc(OCC(F)(F)F)cn1 (stereo partly shown) [Example 8]
III. C[C@@H](NC(=O)Cc1ccc(-c2cccc3cncnc23)cc1)c1ccc(OCC(F)(F)F)cn1 [Example 1]
IV. C[C@@H](NC(=O)Cc1ccc(Oc2nccs2)cc1)c1ccc(OCC(F)(F)F)cn1 [Example 9]
q: Put the items in sequence by IC50, from largest down. Record the ranking as a list of labels in the requested order.
a: II, IV, I, III
